system: A2780/Taxol; assay: Antiproliferative activity against human A2780T cells assessed as cell growth inhibition incubated for 48 hrs by MTT assay; format: functional, cell-based
readout.type: IC50 (nM)
Respond numerically; units are nM and should not be typed.

Below: 2 molecules and their reported IC50.
CC(=O)O[C@H]1C(=O)[C@@]2(C)[C@H]([C@H](OC(=O)c3ccccc3)[C@]3(O)C[C@H](OC(=O)[C@H](O)[C@@H](NC(=O)c4ccccc4)c4ccccc4)C(C)=C1C3(C)C)[C@]1(OC(C)=O)CO[C@@H]1C[C@@H]2O [PACLITAXEL] : 319
COc1cc(-c2nccc3nc(Nc4cccc5[nH]ccc45)nn23)cc(OC)c1OC : 20

API: the following record is the query input.
Query string: Given "CN1CCN(c2cccc(Nc3nc4c(-c5ccc(S(C)(=O)=O)cc5)cccn4n3)c2)CC1" , state its recorded IC50.
Result string: 394

Source: ChEMBL document CHEMBL5390242
